- System: SF-539 CNS
- Assay Remarks: NCI-60 one-dose screen, 48 h (100 = growth as untreated, 0 = no growth, -100 = all killed)
- Measurement Context: 10 µM unless noted
Compounds without any hit were thinned out: in the full panel of roughly 83,000, 20% have a hit.
Think of 90% as a floor: if growth stands on it or above, it is yes; beneath it, no.

See these solved cases before continuing.
Q) Is growth for ClC1=C(Cl)C(=C2C(Cl)=C(Cl)C(Cl)=C2Cl)C(Cl)=C1Cl at or above 90%?
A) yes

Q) Is growth for Cc1nc2cc(NC(=O)CN3CCN(CCN4C(=O)c5cccc6cccc(c56)C4=O)CC3)ccc2s1 at or above 90%?
A) no

Q) Is growth for O=C1CCCN1C1CCN(Cc2cc3ccccc3[nH]c2=O)c2ccccc21 (configuration not stated) at or above 90%?
A) yes

Q) Is growth for COc1ccc2c(c1)C(=O)c1c-2c(OCCCN(C)C)nc2cc(Br)ccc12 at or above 90%?
A) no

Q) Is growth for O=C(/C(=N/O)S(=O)(=O)c1ccccc1)c1cccs1 at or above 90%?
A) yes

New cases:
Q) Is growth for CC/C(=C\c1ccc(N(C)C)cc1)c1ccncc1 at or above 90%?
A) no

Q) Is growth for O=C1CC(C(F)(F)F)=NN1C(=O)c1nn(-c2ccc(Cl)cc2)cc1O at or above 90%?
A) no

Q) Is growth for OC(CCC(O)(c1ccccc1)c1ccccc1)(c1ccccc1)c1ccccc1 at or above 90%?
A) yes

====

List of growth values.
- Test system: UACC-62 melanoma
- Assay Remarks: NCI-60 one-dose screen, 48 h (100 = growth as untreated, 0 = no growth, -100 = all killed)
- Measurement Context: 10 µM unless noted
This is part of a sample that, as a whole, favours compounds with a hit. Of some 83,000 tested, about 20% had one in any assay. Active and inactive are the calls of the source. Rule for the calls: active = growth percent below 10; inactive = the rest.

Worked examples follow.
Q) Answer with the recorded growth of CC(=O)O[C@H]1C(=O)[C@@]2(C)C([C@H](OC(=O)c3ccccc3)[C@]3(O)C[C@H](OC(=O)[C@H](O)[C@@H](NC(=O)c4ccccc4)c4ccccc4)C(C)=C1C3(C)C)[C@]1(OC(C)=O)CO[C@@H]1C[C@@H]2O (stereo partly specified) only.
A) 42.5% (inactive)

Q) Answer with the recorded growth of O=C1NCN(CCO)CN1 only.
A) 92.8% (inactive)

Q) Answer with the recorded growth of COc1cc(NC(=O)c2cc3ccccc3cc2O)c(OC)cc1Cl only.
A) 24% (inactive)

Q) Answer with the recorded growth of COc1cc2c(cc1OCCCOc1ccc(-c3cc4ccccc4c4ccccc34)cc1)N=C[C@@H]1CCCN1C2=O only.
A) -83.6% (active)

New cases:
Q) Answer with the recorded growth of COc1ccc(-c2cn(-c3ccccc3)c(-c3ccccc3)n2)cc1OC only.
A) 62.4% (inactive)

Q) Answer with the recorded growth of O=C1OCCCCCCCCCC#Cc2ccccc21 only.
A) 99.2% (inactive)

====

- System: BT-549 breast
- Assay Remarks: NCI-60 one-dose screen, 48 h (100 = growth as untreated, 0 = no growth, -100 = all killed)
- Measurement Context: 10 µM unless noted
The panel holds about 83,000 compounds, 20% with a hit somewhere; the sample as a whole holds those more often.
List of growth values.
Your answer is read as %, so omit the unit and give the number.

Worked examples follow.
Q) Give reported growth for Cc1cc([N+](=O)[O-])c(C)cc1C(=O)O (BT-549 breast)
A) 92.5

Q) Give reported growth for CC(C)(C)c1ccc(C(O)CCCN2CCC(C(O)(c3ccccc3)c3ccccc3)CC2)cc1 (centres undefined) (BT-549 breast)
A) 42.1

Q) Give reported growth for CN(CCOc1ccc(CC2SC(=O)NC2=O)cc1)c1ccccn1 (centres undefined) (BT-549 breast)
A) 104

Q) Give reported growth for Cc1ccc(NC(=O)Nc2ccc(-c3cccnc3)cc2N2CCC(CO)CC2)cc1 (BT-549 breast)
A) 25.2

New cases:
Q) Give reported growth for O=C(/C=C/c1ccc(Cl)cc1)c1ccccc1 (BT-549 breast)
A) 104

Q) Give reported growth for CCCCn1c(Cc2ccc(Cl)cc2)nc2cc(OC)c(OC)cc2c1=O (BT-549 breast)
A) 38
